- tested_on: recombinant human HDAC2 (Homo sapiens)
- Sequence (Q92769 whole entry): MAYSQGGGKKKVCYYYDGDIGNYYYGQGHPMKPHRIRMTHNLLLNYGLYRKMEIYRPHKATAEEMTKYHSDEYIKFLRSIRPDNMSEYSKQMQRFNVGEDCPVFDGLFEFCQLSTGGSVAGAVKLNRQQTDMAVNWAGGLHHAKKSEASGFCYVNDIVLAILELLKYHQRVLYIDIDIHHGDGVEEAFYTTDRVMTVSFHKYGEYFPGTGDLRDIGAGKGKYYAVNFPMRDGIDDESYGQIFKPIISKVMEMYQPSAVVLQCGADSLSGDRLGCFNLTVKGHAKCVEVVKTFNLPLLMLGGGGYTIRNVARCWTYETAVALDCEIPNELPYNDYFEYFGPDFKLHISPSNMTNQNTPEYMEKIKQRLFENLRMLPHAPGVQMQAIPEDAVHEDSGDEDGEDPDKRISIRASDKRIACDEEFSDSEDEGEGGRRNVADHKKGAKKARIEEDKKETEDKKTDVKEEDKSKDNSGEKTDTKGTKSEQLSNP
- protocol_text: Fluorogenic HDAC inhibition assay, HDAC2 (Boc-L-Lys(Ac)-AMC substrate)
- experimental_context: maximum preincubation time 24 h
pIC50: −log10 of the molar value.
value_kind: pIC50

cpd_smiles=[N-]=[N+]=NCCOc1ccc(C(=O)Nc2cc(-c3cccs3)ccc2N)cc1N=[N+]=[N-] assay_result=6.12
cpd_smiles=[N-]=[N+]=NCCOc1ccc(C(=O)Nc2cc(-c3ccccc3)ccc2N)cc1N=[N+]=[N-] assay_result=6.08
